target: human CTPS1 (Homo sapiens); construct: purchased Proteros biostructures GmbH; test: Human CTPS1 enzyme inhibition (ADP-Glo Max assay); assay type: biochemical; conditions: Table 17, 25° C., read-out: CTPS1 (Human CTPS1 Enzyme Inhibition data grouped by potency range)
Sequence (P17812 whole entry): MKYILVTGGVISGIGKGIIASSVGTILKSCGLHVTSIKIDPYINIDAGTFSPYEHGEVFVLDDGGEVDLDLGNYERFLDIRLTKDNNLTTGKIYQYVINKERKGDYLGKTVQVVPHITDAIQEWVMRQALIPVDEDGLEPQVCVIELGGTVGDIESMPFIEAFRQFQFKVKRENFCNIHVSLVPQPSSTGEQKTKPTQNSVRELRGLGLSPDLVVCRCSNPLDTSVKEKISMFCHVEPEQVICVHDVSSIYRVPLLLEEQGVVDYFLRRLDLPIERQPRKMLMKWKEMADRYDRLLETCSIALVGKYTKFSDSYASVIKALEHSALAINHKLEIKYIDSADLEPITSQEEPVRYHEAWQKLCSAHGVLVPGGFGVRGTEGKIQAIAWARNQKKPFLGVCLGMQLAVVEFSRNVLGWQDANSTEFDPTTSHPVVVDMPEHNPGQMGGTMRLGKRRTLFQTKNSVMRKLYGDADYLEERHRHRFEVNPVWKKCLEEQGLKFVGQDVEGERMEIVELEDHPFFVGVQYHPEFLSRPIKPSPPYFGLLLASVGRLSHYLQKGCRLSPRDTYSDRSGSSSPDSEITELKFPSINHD
pIC50: −log10 of the molar value.
measuredProperty: pIC50

Q: Quick one: pIC50 of CCC(C(=O)Nc1ccc(-c2cncc(OCC(F)(F)F)n2)cn1)c1csc(NS(=O)(=O)C2CC2)n1 (centres unmarked) [T182] ?
Ans: > 7.00

Q: Quick one: pIC50 of O=C(Nc1ccc(-c2cncc(F)c2)cc1)C1CCc2sc(NS(=O)(=O)C3CC3)nc21 (centres unmarked) [T218] ?
Ans: 6.00 to 7.00

Q: Quick one: pIC50 of CC(C)(C(=O)Nc1ccc(-c2cccc(Cl)c2)cc1)c1csc(NS(=O)(=O)C2CC2)n1 [T87] ?
Ans: 6.00 to 7.00

Q: Quick one: pIC50 of CCC(C(=O)Nc1ccc(-c2cncc(OC(C)C)n2)cc1)c1csc(NS(=O)(=O)C2CC2)n1 (centres unmarked) [T76] ?
Ans: > 7.00

Q: Quick one: pIC50 of CCC(C(=O)Nc1ncc(-c2cncc(C#N)n2)cc1F)c1csc(NS(=O)(=O)C2CC2)n1 (centres unmarked) [T184] ?
Ans: 5.00 to 6.00

Q: Quick one: pIC50 of O=C(Nc1ccc(-c2cccnc2)cc1)C1CCCc2sc(NS(=O)(=O)C3CC3)nc21 (centres unmarked) [T84] ?
Ans: 6.00 to 7.00

Q: Quick one: pIC50 of Cc1ncc(-c2ccc(NC(=O)C(C)(C)c3csc(NS(=O)(=O)C4CC4)n3)cc2)nc1Cl [T277] ?
Ans: 6.00 to 7.00

Q: Quick one: pIC50 of CCC(C(=O)Nc1ccc(-c2ccnnc2)cc1)c1csc(NS(=O)(=O)C2CC2)n1 (centres unmarked) [T69] ?
Ans: 5.00 to 6.00
